These data points were gathered from the supplement of paper PMC10307832.

Tested on: NCI-H2405
procedure-text: relative viability (nuclei count vs DMSO), 5 days (fraction); higher = more cells survive
run-parameters: first compound 0.1 µM
readout-kind: relative viability
Respond numerically, and do not add a unit to the figure.

Look over these answered cases.
>>> value_observed("CCN(CC)CCCCNc1ncc2cc(-c3cc(OC)cc(OC)c3)c(NC(=O)NC(C)(C)C)nc2n1 + NC(=O)Nc1cc(-c2cccc(F)c2)sc1C(=O)N[C@H]1CCCNC1 [AZD7762] (partner 0.2 µM)")
0.812
>>> value_observed("O=c1cc(N2CCOCC2)oc2c(-c3cccc4c3sc3ccccc34)cccc12 + Nc1ncn([C@H]2C[C@H](O)[C@@H](CO)O2)c(=O)n1 [Decitabine] (partner 2 µM)")
0.812

What does the data say about its relative viability? Entry: CCN(CC)CCCCNc1ncc2cc(-c3cc(OC)cc(OC)c3)c(NC(=O)NC(C)(C)C)nc2n1 + Cc1nc(NC(=O)N2CCC[C@H]2C(N)=O)sc1-c1ccnc(C(C)(C)C(F)(F)F)c1 [Alpelisib] (partner 2 µM) 0.814
